Readings of log10 of EC50 for the listed molecules
# target: Caspase-3 (Homo sapiens, UniProt P42574)
# Sequence (P42574 29-175 limits assumed): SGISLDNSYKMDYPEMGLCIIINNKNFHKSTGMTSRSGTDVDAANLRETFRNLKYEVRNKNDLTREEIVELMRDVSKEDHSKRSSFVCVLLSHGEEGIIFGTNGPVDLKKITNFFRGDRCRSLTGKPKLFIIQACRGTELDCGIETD
# Sequence (P42574 176-277 limits assumed): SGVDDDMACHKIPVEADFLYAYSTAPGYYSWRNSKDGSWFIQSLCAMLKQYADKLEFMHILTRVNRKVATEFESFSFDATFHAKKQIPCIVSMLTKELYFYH
# experiment-notes: Induction of procaspase 3 activity (unknown origin) using Ac-DEVD-pNa as substrate after 2 hrs
All values: base-10 log of EC50 in µM.

{"columns": ["smiles-data", "log10 of EC50"],
 "data": [
  ["C=CCc1cccc(/C=N/NC(=O)CN2CCN(Cc3ccccc3)CC2)c1O", 0.61],
  ["CCN(CC)Cc1ccc2nc(NC(=O)N/N=C/c3ccc(OCc4ccc(C(C)(C)C)cc4)cc3O)sc2c1", 0.15],
  ["CC1CCN(Cc2ccc3nc(NC(=O)N/N=C/c4ccc(OCc5cccc(Cl)c5)cc4O)sc3c2)CC1", 0.63]
]}

What value of measured log10 of EC50 is listed for CCN(CC)Cc1ccc2nc(NC(=O)N/N=C/c3ccc(OCc4ccc(Cl)cc4)cc3O)sc2c1 ?
0.70

What value of measured log10 of EC50 is listed for CC1CCN(Cc2ccc3nc(NC(=O)N/N=C/c4ccc(OCc5ccc(C(C)(C)C)cc5)cc4O)sc3c2)CC1 ?
0.38

What value of measured log10 of EC50 is listed for CC(C)(C)c1ccc(COc2ccc(/C=N/NC(=O)Nc3nc4ccc(N5CCOCC5)cc4s3)c(O)c2)cc1 ?
1.26

What value of measured log10 of EC50 is listed for CCN(CC)Cc1ccc2nc(NC(=O)N/N=C/c3ccc(OCc4csc(Cc5ccc6c(c5)OCO6)n4)cc3O)sc2c1 ?
-0.60
